Parameter TGI: see the listing below.
# System: SNB-19 CNS
# protocol.text: NCI tumour cell line growth inhibition, 48 h
experimental.readout: TGI

>>> print(df.to_string())
                                    molecule      target  experimental_readout  observed_value
 0  CCOc1cc(/C=N/c2nc3cc4sc(/N=C/c5ccc(O)c(OCC)c5)nc4cc3s2)ccc1O  SNB-19 CNS                   TGI        > 100 µM
 1  Cc1cncc(-c2nc(NCCc3c[nH]c4ccccc34)c3ncn(C(C)C)c3n2)c1  SNB-19 CNS                   TGI         46.6 µM
 2  c1ccc(COCC[P+](c2ccccc2)(c2ccccc2)c2ccccc2)cc1  SNB-19 CNS                   TGI         10.7 µM
 3  CC(O)CC(=O)CO[C@H]1[C@H](O)[C@@H](O)[C@@H](O)[C@@H]2NC(=O)c3c(cc4c(c3O)OCO4)[C@H]21 (stereo not given in full)  SNB-19 CNS                   TGI       0.0754 µM
 4   Cc1ccc(S(=O)(=O)NN=C2C(C)(C)CC2(C)C)cc1  SNB-19 CNS                   TGI        > 100 µM
 5  O=C(Nc1ccn(C2CC(I)C(COC(c3ccccc3)(c3ccccc3)c3ccccc3)O2)c(=O)n1)c1ccccc1 (stereo not given)  SNB-19 CNS                   TGI         21.5 µM
 6                 CC(=O)Nc1c2sscc-2n(C)c1=O  SNB-19 CNS                   TGI         3.45 µM
 7  N#CC(C(=O)/C(=N/NC(=O)c1ccccc1O)C(C#N)c1ccc(Br)cc1)c1ccc(Br)cc1 (stereo not given)  SNB-19 CNS                   TGI         24.3 µM
 8  CCOC(=O)NC(=O)c1cn(CCCCCCCCCCC(=O)NCCCN2CCN(CCCNC(=O)CCCCCCCCCCn3cc(C(=O)NC(=O)OCC)c(=O)[nH]c3=O)CC2)c(=O)[nH]c1=O  SNB-19 CNS                   TGI        > 100 µM
 9               COc1cc(/C=N/N=C(\N)NO)ccc1O  SNB-19 CNS                   TGI        > 100 µM
10  O=c1oc2ccc3ccccc3c2cc1-c1nc(-c2ccc([N+](=O)[O-])cc2)n[nH]1  SNB-19 CNS                   TGI        > 100 µM
11   NC1=NCC(CN2CCCCC2)O1 (stereo not given)  SNB-19 CNS                   TGI        > 100 µM
12  CCOC(=O)c1cc(-c2ccc([N+](=O)[O-])cc2)c([N+](=O)[O-])[nH]1  SNB-19 CNS                   TGI         > 10 µM
13  COc1ccc(C(OC(=O)[C@H](O[Si](C)(C)C(C)(C)C)[C@@H](NC(=O)c2ccccc2)c2ccccc2)c2ccc(OC)cc2)cc1  SNB-19 CNS                   TGI        > 100 µM
14  Cc1cc(Cl)ccc1NC(=O)CC1SC(=NC(=O)c2ccccc2Cl)NC1=O (stereo not given)  SNB-19 CNS                   TGI        > 100 µM
15  CN1CCN(Cc2ccc(NC(=O)c3cncc(C#Cc4c(N)ncc5c(F)cccc45)c3)cc2C(F)(F)F)CC1  SNB-19 CNS                   TGI         1.59 µM
16  CC(C)C(=O)Nc1ccc(-c2nc(-c3cccc(OCCN4CCOCC4)c3)c(-c3ccnc(Br)c3)[nH]2)cc1  SNB-19 CNS                   TGI        > 100 µM
17  N#CC(C#N)=Cc1ccc(C(O)P(=O)(O)O)cc1 (stereo not given)  SNB-19 CNS                   TGI        > 100 µM
18  Fc1cc(C2=Nn3c(CNc4ccc(Cl)cc4)nnc3S/C2=C\c2ccc(-c3ccc(Cl)cc3)o2)c(Cl)cc1Cl  SNB-19 CNS                   TGI        > 100 µM
19  COc1ccc2nc3cc([N+](=O)[O-])ccc3c(NNc3ccc([N+](=O)[O-])cc3)c2c1  SNB-19 CNS                   TGI       > 76.8 µM
20  Cc1cc(O)c2c(c1)C(C1OC(CO)C(O)C(O)C1O)c1cc(O)cc(O)c1C2=O (stereo not given)  SNB-19 CNS                   TGI        > 100 µM
21               Cc1cc(I)cc(CNCCN2CCOCC2)c1O  SNB-19 CNS                   TGI        > 100 µM
22  Cc1ccc(C(=O)C(c2nc3n(c2O)C(=N)N=N3)c2nc3n(c2O)C(=N)N=N3)cc1 (stereo not given)  SNB-19 CNS                   TGI        > 100 µM
23  CC(C(=O)NCCNC(=O)CCCC(=O)N(C)O)C(=O)NCCNC(=O)CCCC(=O)N(C)O  SNB-19 CNS                   TGI        > 100 µM
24  O=C(Nc1ccc(Oc2ccc(NC(=O)Nc3ccccc3Cl)cc2)cc1)Nc1ccccc1Cl  SNB-19 CNS                   TGI         43.8 µM
25  CCC[CH2][Sn]1([CH2]CCC)[O]C(=O)CN=C(C)c2ccccc2[O]1  SNB-19 CNS                   TGI         2.29 µM
26  O=C(NNC(=S)Nc1ccc(Cl)cc1)C12CC3CC(CC(C3)C1)C2  SNB-19 CNS                   TGI       > 79.2 µM
27  COC(=O)CNC(=O)CNC(=O)CSc1nnc(COc2ccc(Cl)cc2)n1-c1ccccc1  SNB-19 CNS                   TGI        > 100 µM
28        CSC1=C(SC)C(=O)c2cn(C)c(=O)cc2C1=O  SNB-19 CNS                   TGI         31.1 µM
29          O=C1C[C@@H]2[C@@H](CCC23CCCC3)N1  SNB-19 CNS                   TGI        > 100 µM
